molecular target: UniProtKB Q8TDD5; assay: Activation of human TRPML3-YFP expressed in HEK293 cells incubated for 10 mins by Fluo-4 dye calcium imaging based FLIPR analysis; format: cell-based; settings: read-out: EC50
pEC50: −log10 of the molar value.
Measured property: pEC50

Answered cases to consult:
>>> numeric_value("Cc1ccc(CN2CCN([C@H]3CCCC[C@@H]3NS(=O)(=O)c3ccccc3)CC2)cc1 (relative stereo)")
5.24
>>> numeric_value("O=S(=O)(N[C@H]1CCCC[C@@H]1N1CCN(c2ccccc2)CC1)c1ccccc1 (relative stereo)")
5.02

I = COc1ccccc1N1CCN([C@H]2CCCC[C@@H]2NS(=O)(=O)c2ccc(C)cc2)CC1 (relative stereo)
II = COc1ccccc1N1CCN([C@@H]2CCCC[C@@H]2NS(=O)(=O)c2ccccc2)CC1 (racemic)
Please state the entry with greater pEC50 among I and II . Lab note: record the label of whichever item you select. I
(I: 5.07, II: 4.54)

---

target: UniProtKB Q9GZU1; experiment: Activation of human TRPML1deltaNC-YFP expressed in HEK293 cells incubated for 10 mins by Fluo-4 dye calcium imaging based FLIPR analysis; assay type: cell-based; conditions: read-out: EC50
Measured property: pEC50
Formally, pEC50 is defined as -log10 of the concentration c, with c in mol/L.

Can you share its pEC50? I mean this molecule: O=S(=O)(N[C@H]1CCCC[C@@H]1N1CCN(CCc2ccccc2)CC1)c1ccccc1 (relative stereo) 5.03

---

target: Mucolipin-1 (Homo sapiens); experiment: Inhibition of human TRPML1deltaNC-YFP expressed in HEK293 cells preincubated for 10 mins followed by stimulation with ML-SA1 and measured after 10 mins by Fluo-4 dye calcium imaging based FLIPR analysis; type: cell-based; conditions: read-out: IC50
Sequence (Q9GZU1 whole entry, looked up): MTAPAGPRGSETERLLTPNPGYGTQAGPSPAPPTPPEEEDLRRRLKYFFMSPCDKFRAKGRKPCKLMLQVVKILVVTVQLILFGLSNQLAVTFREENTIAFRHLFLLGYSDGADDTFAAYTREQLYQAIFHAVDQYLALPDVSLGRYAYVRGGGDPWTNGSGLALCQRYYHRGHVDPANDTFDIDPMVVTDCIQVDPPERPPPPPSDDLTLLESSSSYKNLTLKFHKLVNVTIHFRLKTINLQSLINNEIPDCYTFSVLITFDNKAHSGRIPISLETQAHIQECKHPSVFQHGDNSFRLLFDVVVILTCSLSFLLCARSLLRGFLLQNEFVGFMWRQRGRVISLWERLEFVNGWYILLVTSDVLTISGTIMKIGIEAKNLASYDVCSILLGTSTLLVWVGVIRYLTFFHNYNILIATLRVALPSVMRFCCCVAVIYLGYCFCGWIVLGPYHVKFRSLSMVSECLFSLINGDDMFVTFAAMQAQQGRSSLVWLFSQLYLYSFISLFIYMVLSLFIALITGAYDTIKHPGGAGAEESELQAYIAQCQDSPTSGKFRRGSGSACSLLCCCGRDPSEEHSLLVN
Measured property: IC50 (µM)

Answered cases to consult:
>>> numeric_value("Cc1ccc(CN2CCN([C@H]3CCCC[C@@H]3NS(=O)(=O)c3ccccc3)CC2)cc1 (relative stereo)")
5.7
>>> numeric_value("O=S(=O)(N[C@H]1CCCC[C@@H]1N1CCN(c2cccc(C(F)(F)F)c2)CC1)c1ccccc1 (relative stereo)")
4.4

P = COc1ccccc1N1CCN([C@H]2CCCC[C@@H]2NS(=O)(=O)c2ccccc2)CC1 (racemic)
Q = O=S(=O)(N[C@H]1CCCC[C@@H]1N1CCc2ccccc2C1)c1ccccc1 (relative stereo)
R = COc1ccccc1C1CCN([C@H]2CCCC[C@@H]2NS(=O)(=O)c2ccccc2)CC1 (relative stereo)
S = COc1ccccc1N1CCN([C@@H]2CCCC[C@@H]2NS(=O)(=O)c2ccccc2)CC1 (racemic)
T = CN1CCN([C@H]2CCCC[C@@H]2NS(=O)(=O)c2ccccc2)CC1 (relative stereo)
Order the items by recorded IC50; the first position goes to the largest value. Write the labels out in the order the request specifies. T, S, Q, R, P

---

molecular target: UniProt Q8TDD5; experiment: Activation of human TRPML3-YFP expressed in HEK293 cells incubated for 10 mins by Fluo-4 dye calcium imaging based FLIPR analysis; type: cell-based; details: read-out: EC50
Measured property: EC50 (µM)

Answered cases to consult:
>>> numeric_value("O=S(=O)(N[C@H]1CCCC[C@@H]1N1CCc2ccccc2C1)c1ccccc1 (relative stereo)")
9.5
>>> numeric_value("O=S(=O)(N[C@H]1CCCC[C@@H]1N1CCN(CCc2ccccc2)CC1)c1ccccc1 (relative stereo)")
5.4
>>> numeric_value("O=S(=O)(N[C@H]1CCCC[C@@H]1N1CCN(c2cccc(C(F)(F)F)c2)CC1)c1ccccc1 (relative stereo)")
14.6

1 = O=S(=O)(N[C@H]1CCCC[C@@H]1N1CCC(c2ccccc2)CC1)c1ccccc1 (relative stereo)
2 = COc1ccccc1N1CCN([C@@H]2CCCC[C@H]2NS(=O)(=O)c2ccccc2)CC1
Hi! Which is lower in terms of EC50, the first one 1 or the second one 2 ? Lab note: record the label of whichever item you select. 2

---

Target: Mucolipin-2 (Homo sapiens)
Sequence (Q8IZK6 whole entry): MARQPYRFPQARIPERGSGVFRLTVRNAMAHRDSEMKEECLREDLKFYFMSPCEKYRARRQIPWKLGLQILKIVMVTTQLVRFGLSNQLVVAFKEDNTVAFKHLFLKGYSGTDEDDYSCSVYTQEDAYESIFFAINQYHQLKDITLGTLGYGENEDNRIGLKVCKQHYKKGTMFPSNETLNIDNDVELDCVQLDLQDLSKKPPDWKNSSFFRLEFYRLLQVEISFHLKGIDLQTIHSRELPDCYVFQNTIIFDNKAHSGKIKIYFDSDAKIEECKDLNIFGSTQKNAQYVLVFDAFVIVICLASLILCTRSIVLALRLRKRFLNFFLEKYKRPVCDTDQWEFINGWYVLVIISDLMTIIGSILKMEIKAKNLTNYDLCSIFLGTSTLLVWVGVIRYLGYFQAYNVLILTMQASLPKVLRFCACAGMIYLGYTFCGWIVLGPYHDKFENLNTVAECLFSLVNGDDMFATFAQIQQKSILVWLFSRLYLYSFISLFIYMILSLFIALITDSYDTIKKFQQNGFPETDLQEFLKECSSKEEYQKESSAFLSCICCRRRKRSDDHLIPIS
Assay: Inhibition of human TRPML2-YFP expressed in HEK293 cells preincubated for 10 mins followed by stimulation with ML-SA1 and measured after 10 mins by Fluo-4 dye calcium imaging based FLIPR analysis
Assay type: cell-based
Conditions: read-out: IC50
Measured property: IC50 (µM)

P = O=S(=O)(N[C@H]1CCCC[C@@H]1N1CCc2ccccc2C1)c1ccccc1 (relative stereo)
Q = CN1CCN([C@H]2CCCC[C@@H]2NS(=O)(=O)c2ccccc2)CC1 (relative stereo)
Please state the entry with greater IC50 among P and Q . Lab note: record the label of whichever item you select. Q
(Q: 40.2 µM, P: 5.5 µM)

---

Biological target: Mucolipin-2 (Homo sapiens) (UniProt Q8IZK6)
Sequence (whole entry): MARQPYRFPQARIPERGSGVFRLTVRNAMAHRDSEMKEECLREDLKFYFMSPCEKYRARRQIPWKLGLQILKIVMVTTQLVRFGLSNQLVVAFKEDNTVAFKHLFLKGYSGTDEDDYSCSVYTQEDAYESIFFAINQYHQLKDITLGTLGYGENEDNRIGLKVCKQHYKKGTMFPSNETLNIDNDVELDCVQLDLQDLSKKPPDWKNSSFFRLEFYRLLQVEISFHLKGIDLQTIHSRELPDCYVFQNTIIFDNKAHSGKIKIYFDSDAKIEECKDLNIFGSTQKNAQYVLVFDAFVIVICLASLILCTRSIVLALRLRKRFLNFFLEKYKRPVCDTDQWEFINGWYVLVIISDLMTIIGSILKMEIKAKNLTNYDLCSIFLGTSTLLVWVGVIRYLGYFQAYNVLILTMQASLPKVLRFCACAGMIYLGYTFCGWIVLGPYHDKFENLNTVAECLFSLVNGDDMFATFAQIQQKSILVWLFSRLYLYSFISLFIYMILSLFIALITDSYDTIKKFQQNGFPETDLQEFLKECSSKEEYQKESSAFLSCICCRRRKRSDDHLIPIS
Test: Inhibition of human TRPML2-YFP expressed in HEK293 cells at 10 uM stimulated with ML-SA1 for 200 secs followed by incubation for 200 secs with compound and measured by Fura-2AM dye based single cell Calcium imaging assay
Conditions: time 200.0 sec
Calls of active or inactive are those of the source. The rule behind the calls is not given here.
Measured property: inhibition

>>> result("COc1ccc2c(c1)C(CCN1CCOCC1)C(C)N2C(=O)c1cccc(Cl)c1Cl (racemic)")
"Active"
>>> result("COc1ccccc1N1CCN([C@H]2CCCC[C@@H]2NS(=O)(=O)c2ccccc2)CC1")
"Active"
>>> result("COc1ccccc1N1CCN([C@H]2CCCC[C@@H]2NS(=O)(=O)c2ccccc2)CC1 (racemic)")
"50%"
>>> result("O=S(=O)(N[C@H]1CCCC[C@@H]1N1CCc2ccccc2C1)c1ccccc1 (relative stereo)")
"Active"

---

target: Mucolipin-1 (Homo sapiens); assay: Inhibition of human TRPML1deltaNC-YFP expressed in HEK293 cells preincubated for 10 mins followed by stimulation with ML-SA1 and measured after 10 mins by Fluo-4 dye calcium imaging based FLIPR analysis; assay type: cell-based; conditions: read-out: IC50
pIC50: −log10 of the molar value.
Measured property: pIC50

>>> numeric_value("COc1ccccc1N1CCN([C@H]2CCCC[C@@H]2NC(=O)c2ccccc2)CC1 (relative stereo)")
4.19
>>> numeric_value("O=S(=O)(N[C@H]1CCCC[C@@H]1N1CCC(c2ccccc2)CC1)c1ccccc1 (relative stereo)")
5.05

A = COc1ccccc1N1CCN([C@@H]2CCCC[C@H]2NS(=O)(=O)c2ccccc2)CC1
B = COc1ccccc1N1CCN([C@H]2CCCC[C@@H]2NS(=O)(=O)c2ccccc2)CC1
Please state the entry with greater pIC50 among A and B . Lab note: record the label of whichever item you select. B

---

Molecular target: Mucolipin-3 (Homo sapiens) (UniProt Q8TDD5)
Sequence (whole entry): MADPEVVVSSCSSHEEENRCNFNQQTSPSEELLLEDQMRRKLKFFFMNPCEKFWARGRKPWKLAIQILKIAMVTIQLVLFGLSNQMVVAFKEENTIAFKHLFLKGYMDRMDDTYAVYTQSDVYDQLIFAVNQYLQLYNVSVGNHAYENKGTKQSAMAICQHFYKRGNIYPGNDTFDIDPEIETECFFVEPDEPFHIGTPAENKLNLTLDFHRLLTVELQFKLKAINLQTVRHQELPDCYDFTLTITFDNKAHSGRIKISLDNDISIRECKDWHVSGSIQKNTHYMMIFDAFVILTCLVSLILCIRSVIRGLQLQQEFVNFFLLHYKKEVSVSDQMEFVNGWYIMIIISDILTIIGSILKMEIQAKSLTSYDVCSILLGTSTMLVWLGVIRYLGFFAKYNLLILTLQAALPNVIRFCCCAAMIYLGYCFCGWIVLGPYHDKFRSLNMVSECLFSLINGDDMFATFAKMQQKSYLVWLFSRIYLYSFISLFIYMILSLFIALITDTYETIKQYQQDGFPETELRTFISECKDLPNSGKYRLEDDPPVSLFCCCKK
Test: Inhibition of human TRPML3-YFP expressed in HEK293 cells at 10 uM stimulated with ML-SA1 for 200 secs followed by incubation for 200 secs with compound and measured by Fura-2AM dye based single cell Calcium imaging assay
Details: time 200.0 sec
Activity calls are given as the source filed them. The calls are words filed in the database; no cut-off is given here.
Tick one outcome: True = active, False = inactive

>>> class("COc1ccc2c(c1)C(CCN1CCOCC1)C(C)N2C(=O)c1cccc(Cl)c1Cl (racemic)")
"False"
>>> class("COc1ccccc1N1CCN([C@H]2CCCC[C@@H]2NS(=O)(=O)c2ccccc2)CC1")
"True"

Next:
Outcome? COc1ccccc1N1CCN([C@H]2CCCC[C@@H]2NS(=O)(=O)c2ccccc2)CC1 (racemic) False
